- Tested on: CJ DLBCL cancer cell line
- assay: MTS cell viability assay, CJ
- Type: cell-based
- condition.details: CJ; MTS, 72 h incubation; read-out: IC50 on cell viability
measurement.name: IC50 (µM)
Supply the numeric figure in µM, leaving out any unit text.

// output IC50; input C=CC(=O)N1CCC[C@@H](n2nc(-c3ccc(Oc4ccccc4)cc3)c3c(N)ncnc32)C1 ; system CJ DLBCL cancer cell line
25

---

- System: LY19 DLBCL cancer cell line
- assay: MTS cell viability assay, LY19
- Format: cell-based
- condition.details: LY19; MTS, 72 h incubation; read-out: IC50 on cell viability
measurement.name: IC50 (µM)
Supply the numeric figure in µM, leaving out any unit text.

// output IC50; input C=CC(=O)N1CCC[C@@H](n2nc(-c3ccc(Oc4ccccc4)cc3)c3c(N)ncnc32)C1 [ibrutinib] ; system LY19 DLBCL cancer cell line
10
